Target: the molecule itself
Assay: native gel or EMSA; BN-PAGE (8% bis-tris gel, pH 7.0, on ice) of whole-cell lysates of transfected HEK293 cells in 1% Triton X-100 BN lysis buffer, then immunoblot (anti-AQP4 or anti-GFP) and densitometry; self-association: tetramer, dimer, monomer bands
Known stoichiometry N of a selection of proteins
PROPERTY: stoichiometry N

>>> val("AQP3 P181E/Y182K/N183R (natural protein, human, UniProt Q92482 1-292, looked up, aquaporin-3 (AQP3), human; DPYNN changed to DEKRN; The construct and its tag are not described; a GFP tag is surmised; also called AQP3 DEKRN mutant; source: HEK293, transfected, extracted with Triton X-100) MGRQKELVSRCGEMLHIRYRLLRQALAECLGTLILVMFGCGSVAQVVLSRGTHGGFLTINLAFGFAVTLGILIAGQVSGAHLNPAVTFAMCFLAREPWIKLPIYTLAQTLGAFLGAGIVFGLYYDAIWHFADNQLFVSGPNGTAGIFATYPSGHLDMINGFFDQFIGTASLIVCVLAIVDEKRNPVPRGLEAFTVGLVVLVIGTSMGFNSGYAVNPARDFGPRLFTALAGWGSAVFTTGQHWWWVPIVSPLLGSIAGVFVYQLMIGCHLEQPPPSNEEENVKLAHVKHKEQI")
2
>>> val("AQP3 P181S/Y182K/N183R (natural protein, human, UniProt Q92482 1-292, looked up, aquaporin-3 (AQP3), human; DPYNN changed to DSKRN; The construct and its tag are not described; a GFP tag is surmised; also called AQP3 DSKRN mutant; source: HEK293, transfected, extracted with Triton X-100) MGRQKELVSRCGEMLHIRYRLLRQALAECLGTLILVMFGCGSVAQVVLSRGTHGGFLTINLAFGFAVTLGILIAGQVSGAHLNPAVTFAMCFLAREPWIKLPIYTLAQTLGAFLGAGIVFGLYYDAIWHFADNQLFVSGPNGTAGIFATYPSGHLDMINGFFDQFIGTASLIVCVLAIVDSKRNPVPRGLEAFTVGLVVLVIGTSMGFNSGYAVNPARDFGPRLFTALAGWGSAVFTTGQHWWWVPIVSPLLGSIAGVFVYQLMIGCHLEQPPPSNEEENVKLAHVKHKEQI")
2
>>> val("wild-type AQP9 (natural protein, human, UniProt O43315 1-295, looked up, aquaporin-9 (AQP9), human; The construct and its tag are not described; a GFP tag is surmised; source: HEK293, transfected, Triton X-100-extracted protein) MQPEGAEKGKSFKQRLVLKSSLAKETLSEFLGTFILIVLGCGCVAQAILSRGRFGGVITINVGFSMAVAMAIYVAGGVSGGHINPAVSLAMCLFGRMKWFKLPFYVGAQFLGAFVGAATVFGIYYDGLMSFAGGKLLIVGENATAHIFATYPAPYLSLANAFADQVVATMILLIIVFAIFDSRNLGAPRGLEPIAIGLLIIVIASSLGLNSGCAMNPARDLSPRLFTALAGWGFEVFRAGNNFWWIPVVGPLVGAVIGGLIYVLVIEIHHPEPDSVFKTEQSEDKPEKYELSVIM")
4
>>> val("wild-type AQP10 (natural protein, human, UniProt Q96PS8 1-301, looked up, aquaporin-10 (AQP10), human; The construct and its tag are not described; a GFP tag is surmised; source: HEK293, transfected, Triton X-100-extracted protein) MVFTQAPAEIMGHLRIRSLLARQCLAEFLGVFVLMLLTQGAVAQAVTSGETKGNFFTMFLAGSLAVTIAIYVGGNVSGAHLNPAFSLAMCIVGRLPWVKLPIYILVQLLSAFCASGATYVLYHDALQNYTGGNLTVTGPKETASIFATYPAPYLSLNNGFLDQVLGTGMLIVGLLAILDRRNKGVPAGLEPVVVGMLILALGLSMGANCGIPLNPARDLGPRLFTYVAGWGPEVFSAGNGWWWVPVVAPLVGATVGTATYQLLVALHHPEGPEPAQDLVSAQHKASELETPASAQMLECKL")
4
